procedureDetails: AUC in Sprague-Dawley rat at 3 mg/kg, po measured upto 16 hrs by LC-MS/MS analysis
Type: ADME, organism-based
Parameters: dose 3 mg/kg, time < 16 hrs, route po
protocolConditions: in vivo
quantityMeasured: AUC at 16 h (µM·h)

                               samplesmiles  measured
0  C[C@H](c1c(Cl)ccc(C2CC2)c1Cl)n1cnc2cnc(-c3ccccc3[C@@H](C)C(=O)O)cc21      1.16

----------
procedureDetails: Cmax in Beagle dog at 1 mg/kg, iv measured upto 8 hrs by LC-MS/MS analysis
Assay type: ADME, organism-based, Canis lupus familiaris
Parameters: time < 8 hrs, dose 1 mg/kg, route iv
protocolConditions: in vivo
quantityMeasured: Cmax

In [3]: df
Out[3]:
                               samplesmiles  measured
0  C[C@H](c1c(Cl)ccc(C2CC2)c1Cl)n1cnc2cnc(-c3ccccc3[C@@H](C)C(=O)O)cc21   6.87 µM

----------
procedureDetails: Tmax in CD1 mouse at 3 mg/kg, po measured upto 16 hrs by LC-MS/MS analysis
Type: ADME, organism-based
protocolConditions: in vivo
quantityMeasured: Tmax

>>> print(df.to_string())
                               samplesmiles  measured
0  C[C@H](c1c(Cl)ccc(C2CC2)c1Cl)n1cnc2cnc(-c3ccccc3[C@@H](C)C(=O)O)cc21  34.8 min

----------
procedureDetails: AUC in CD1 mouse at 3 mg/kg, po measured upto 16 hrs by LC-MS/MS analysis
Assay type: ADME, organism-based
Parameters: dose 3 mg/kg, time < 16 hrs, route po
protocolConditions: in vivo
quantityMeasured: AUC at 16 h (µM·h)

>>> df
                               samplesmiles  quantitymeasured  measured
0  C[C@H](c1c(Cl)ccc(C2CC2)c1Cl)n1cnc2cnc(-c3ccccc3[C@@H](C)C(=O)O)cc21       AUC at 16 h       7.3

----------
procedureDetails: Half life in Sprague-Dawley rat at 1 mg/kg, iv measured upto 8 hrs by LC-MS/MS analysis
Type: ADME, organism-based
protocolConditions: in vivo
quantityMeasured: half-life (min)

In [3]: df
Out[3]:
                               samplesmiles  unitlabel  measured
0  C[C@H](c1c(Cl)ccc(C2CC2)c1Cl)n1cnc2cnc(-c3ccccc3[C@@H](C)C(=O)O)cc21        min        36

----------
procedureDetails: Half life in CD1 mouse at 3 mg/kg, po measured upto 16 hrs by LC-MS/MS analysis
Format: ADME, organism-based
protocolConditions: in vivo
quantityMeasured: half-life (min)

>>> print(df.to_string())
                               samplesmiles  unitlabel  measured
0  C[C@H](c1c(Cl)ccc(C2CC2)c1Cl)n1cnc2cnc(-c3ccccc3[C@@H](C)C(=O)O)cc21        min        96

----------
procedureDetails: Volume of distribution at steady state in Beagle dog at 1 mg/kg, iv measured upto 8 hrs by LC-MS/MS analysis
Assay type: ADME, organism-based, Canis lupus familiaris
protocolConditions: in vivo, read-out: Vdss
quantityMeasured: Vd (L/kg)

                               samplesmiles  quantitymeasured  unitlabel  measured
0  C[C@H](c1c(Cl)ccc(C2CC2)c1Cl)n1cnc2cnc(-c3ccccc3[C@@H](C)C(=O)O)cc21                Vd       L/kg       0.3
